Plant response rating, Redroot pigweed listing for selected compounds.
test system: pigweed (Amaranthus retroflexus); assay: Test B pre-/postemergence; type: in vivo; parameters: key: 0 is no effect; 10 is complete control; details: Rate 250 g/ha, Postemergence
endpoint: Plant response rating, Redroot pigweed

{"columns": ["compound", "system-name", "endpoint", "val"],
 "data": [
  ["Cc1cnc(-c2ccc(C(F)(F)F)cc2)nc1Cn1nc(C(F)(F)F)cc1C [Compound 13]", "pigweed (Amaranthus retroflexus)", "Plant response rating, Redroot pigweed", 10],
  ["Cc1cnc(-c2ccc(C(F)(F)F)cc2)nc1C(=O)c1ccc(C(F)(F)F)cc1 [Compound 74]", "pigweed (Amaranthus retroflexus)", "Plant response rating, Redroot pigweed", 8],
  ["CCc1cnc(-n2ccc(C(F)(F)F)n2)nc1C(=O)c1cccc(C#N)c1 [Compound 72]", "pigweed (Amaranthus retroflexus)", "Plant response rating, Redroot pigweed", 9],
  ["COC(=O)C(c1cccc(C(F)(F)F)c1)c1nc(-c2ccc(C(F)(F)F)cc2)ncc1C (racemic) [Compound 18]", "pigweed (Amaranthus retroflexus)", "Plant response rating, Redroot pigweed", 9],
  ["Cc1cnc(-n2ccc(C(F)(F)F)n2)nc1C(=O)c1cccc(OC(F)(F)F)c1 [Compound 66]", "pigweed (Amaranthus retroflexus)", "Plant response rating, Redroot pigweed", 10],
  ["Cc1cnc(-n2cnc(C(F)(F)F)n2)nc1Cc1cccc(C(F)(F)F)c1 [Compound 43]", "pigweed (Amaranthus retroflexus)", "Plant response rating, Redroot pigweed", 10],
  ["Cc1cnc(-c2ccc(C(F)(F)F)cc2)nc1Cn1ccc(C#N)n1 [Compound 53]", "pigweed (Amaranthus retroflexus)", "Plant response rating, Redroot pigweed", 7],
  ["Cc1cnc(-c2ccc(C#N)cc2)nc1Cc1cccc(C(F)(F)F)c1 [Compound 30]", "pigweed (Amaranthus retroflexus)", "Plant response rating, Redroot pigweed", 9],
  ["Cc1cnc(-c2ccc(C(F)(F)F)cc2)nc1Cc1cccc(OC(F)(F)F)c1 [Compound 15]", "pigweed (Amaranthus retroflexus)", "Plant response rating, Redroot pigweed", 9],
  ["Cc1cnc(-c2ccc(C(F)(F)F)cc2)nc1C(C)c1cccc(C(F)(F)F)c1 (racemic) [Compound 19]", "pigweed (Amaranthus retroflexus)", "Plant response rating, Redroot pigweed", 7],
  ["COc1cnc(-n2ccc(C(F)(F)F)n2)nc1C(=O)c1cccc(C(F)(F)F)c1 [Compound 60]", "pigweed (Amaranthus retroflexus)", "Plant response rating, Redroot pigweed", 7],
  ["Cc1cnc(-c2ccc(Cl)cc2)nc1Cn1ccc(C(F)(F)F)n1 [Compound 6]", "pigweed (Amaranthus retroflexus)", "Plant response rating, Redroot pigweed", 9],
  ["Cc1cnc(-n2ccc(C(F)(F)C(F)(F)F)n2)nc1C(=O)c1cccc(C(F)(F)F)c1 [Compound 68]", "pigweed (Amaranthus retroflexus)", "Plant response rating, Redroot pigweed", 10],
  ["Cc1cnc(-c2ccc(F)cc2F)nc1Cc1cccc(C#N)c1 [Compound 34]", "pigweed (Amaranthus retroflexus)", "Plant response rating, Redroot pigweed", 6],
  ["Cc1cnc(-c2ccccc2F)nc1Cc1cccc(C(F)(F)F)c1 [Compound 26]", "pigweed (Amaranthus retroflexus)", "Plant response rating, Redroot pigweed", 8],
  ["Cc1cnc(-n2ccc(C(F)(F)F)n2)nc1Cn1ccc(C(F)(F)F)n1 [Compound 52]", "pigweed (Amaranthus retroflexus)", "Plant response rating, Redroot pigweed", 10],
  ["Cc1cnc(-c2ccc(C(F)(F)F)cc2)nc1C(=O)c1cccc(OC(F)(F)F)c1 [Compound 75]", "pigweed (Amaranthus retroflexus)", "Plant response rating, Redroot pigweed", 10],
  ["Cc1cnc(-c2ccc(C(F)(F)F)cc2)nc1C(Cl)c1cccc(C(F)(F)F)c1 (racemic) [Compound 21]", "pigweed (Amaranthus retroflexus)", "Plant response rating, Redroot pigweed", 10]
]}

###

system: broadleaf signalgrass (Brachiaria decumbens); assay: Test B pre-/postemergence; assay type: in vivo; parameters: key: 0 is no effect; 10 is complete control; conditions: Rate 500 g/ha, Preemergence

{"columns": ["molecule", "system-name", "Plant response rating, B. signalgrass"],
 "data": [
  ["Cc1cnc(-n2cnc(C(F)(F)F)n2)nc1C(=O)c1cccc(C(F)(F)F)c1 [Compound 67]", "broadleaf signalgrass (Brachiaria decumbens)", 10],
  ["Cc1cnc(-c2ccc(OC(F)(F)F)cc2)nc1Cc1cccc(C(F)(F)F)c1 [Compound 16]", "broadleaf signalgrass (Brachiaria decumbens)", 7],
  ["Cc1cnc(-n2ccc(C(F)(F)F)n2)nc1C(=O)c1ccc(C(F)(F)F)cc1 [Compound 65]", "broadleaf signalgrass (Brachiaria decumbens)", 2],
  ["Cc1cnc(-n2cnc(C(F)(F)F)c2)nc1C(=O)c1cccc(C(F)(F)F)c1 [Compound 61]", "broadleaf signalgrass (Brachiaria decumbens)", 9]
]}

###

test system: velvetleaf (Abutilon theophrasti); assay: Test B pre-/postemergence; type: in vivo; details: Rate 500 g/ha, Preemergence
Kind request: treat 8 as inclusive, so Plant response rating, Velvetleaf at 8 or higher is 1 (yes), anything lower is 0 (no).

{"columns": ["entry-smiles", "system-name", "classification"],
 "data": [
  ["Cc1cnc(-n2ccc(C(F)(F)C(F)(F)F)n2)nc1C(=O)c1cccc(OC(F)(F)F)c1", "velvetleaf (Abutilon theophrasti)", "0 (no)"],
  ["Cc1cnc(-c2ccc(C(F)(F)F)cc2)nc1Cn1nc(C(F)(F)F)cc1C", "velvetleaf (Abutilon theophrasti)", "1 (yes)"],
  ["Cc1cnc(-c2ccc(C(F)(F)F)cc2)nc1Cn1cc(I)cn1", "velvetleaf (Abutilon theophrasti)", "0 (no)"],
  ["Cc1cnc(-c2ccccc2)nc1Cn1ccc(C(F)(F)F)n1", "velvetleaf (Abutilon theophrasti)", "0 (no)"],
  ["Cc1cnc(-n2cnc(C(F)(F)F)c2)nc1C(=O)c1cccc(C(F)(F)F)c1", "velvetleaf (Abutilon theophrasti)", "1 (yes)"],
  ["Cc1cnc(-n2ccc(C(F)(F)F)n2)nc1C(=O)c1cccc(C(F)(F)F)c1", "velvetleaf (Abutilon theophrasti)", "1 (yes)"],
  ["Cc1cnc(-n2ccc(C(F)(F)F)n2)nc1Cc1cccc(C(F)(F)F)c1", "velvetleaf (Abutilon theophrasti)", "1 (yes)"]
]}

###

system: rice (Oryza sativa); assay: Test B flood test; type: in vivo; design: key: 0 is no effect; 10 is complete control; conditions: Rate 125 g/ha, Postemergence section (flood test species)
Field 'label' (enum: 1 / 0). Set to 1 when Rice plant response rating is strictly under 1; else 0.

{"columns": ["entry-smiles", "classification"],
 "data": [
  ["Cc1cnc(-n2ccc(C(F)(F)C(F)(F)F)n2)nc1C(=O)c1cccc(OC(F)(F)F)c1", 1],
  ["Cc1cnc(-c2ccc(F)cc2F)nc1Cc1cccc(C(F)(F)F)c1", 0],
  ["CCc1cnc(-n2cnc(C(F)(F)F)c2)nc1Cc1cccc(OC(F)(F)F)c1", 0],
  ["Cc1cnc(-n2cnc(C(F)(F)F)n2)nc1Cc1cccc(C(F)(F)F)c1", 0],
  ["O=C(c1cccc(C(F)(F)F)c1)c1ccnc(-c2ccc(C(F)(F)F)cc2)n1", 1],
  ["Cc1cnc(-c2ccc(C(F)(F)F)cc2)nc1C(=O)c1ccc(C(F)(F)F)cc1", 1]
]}

###

tested on: momingglory (Ipomoea hederacea); experiment: Test B pre-/postemergence; type: in vivo; settings: Rate 125 g/ha, Preemergence
endpoint: Plant response rating, Morningglory

{"columns": ["molecule", "val"],
 "data": [
  ["CCc1cnc(-n2ccc(C(F)(F)F)n2)nc1C(=O)c1cccc(C#N)c1 [Compound 72]", 3],
  ["Cc1cnc(-n2cnc(C(F)(F)F)n2)nc1C(=O)c1cccc(OC(F)(F)F)c1 [Compound 64]", 10],
  ["Cc1cnc(-n2ccc(C(F)(F)F)n2)nc1C(=O)c1cccc(C(F)(F)F)c1 [Compound 59]", 6],
  ["Cc1cnc(-n2cnc(C(F)(F)F)c2)nc1C(=O)c1cccc(C(F)(F)F)c1 [Compound 61]", 3],
  ["Cc1cnc(-n2ccc(C(F)(F)F)n2)nc1C(=O)c1cccc(OC(F)(F)F)c1 [Compound 66]", 3],
  ["Cc1cnc(-n2ccc(C(F)(F)F)n2)nc1C(=O)c1ccc(C(F)(F)F)cc1 [Compound 65]", 0],
  ["N#Cc1ccc(-c2nccc(C(=O)c3cccc(C(F)(F)F)c3)n2)cc1 [Compound 78]", 0]
]}

###

test system: sandbur (Cenchrus echinatus); test: Test E pre-/postemergence/post directed; format: in vivo; settings: PREEMERGENCE, Rate 64 g/ha
Sorting guide: entries reporting Plant response rating, Sandbur beneath 60 go in the Condition met pile, the rest go in the Condition not met pile.

{"columns": ["entry-smiles", "classification"],
 "data": [
  ["Cc1cnc(-n2ccc(C(F)(F)F)n2)nc1Cc1cccc(C(F)(F)F)c1", "Condition not met"],
  ["CCc1cnc(-n2ccc(C(F)(F)F)n2)nc1Cc1cccc(C(F)(F)F)c1", "Condition met"],
  ["Cc1cnc(-n2ccc(C(F)(F)F)n2)nc1Cc1cccc(OC(F)(F)F)c1", "Condition met"],
  ["Cc1cnc(-n2ccc(C(F)(F)F)n2)nc1Cn1ccc(C(F)(F)F)n1", "Condition met"],
  ["COc1cnc(-c2ccc(C(F)(F)F)cc2)nc1Cc1cccc(C(F)(F)F)c1", "Condition not met"],
  ["Cc1cnc(-c2ccc(C(F)(F)F)cc2)nc1Cc1cccc(C(F)(F)F)c1", "Condition not met"]
]}

These data points were gathered from patent US6525001B1.
